tested on: LXRa homodimer (NR concentration 270 nM); assay: PBM binding z-score (relative to random genomic background probes); higher = stronger binding; sequences stand for … in GC…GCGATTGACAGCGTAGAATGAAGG
I'd be grateful if you could share measured PBM binding z-score for these entries.
Reply: number alone, nothing else.

// PBM binding z-score lookup, sequence = "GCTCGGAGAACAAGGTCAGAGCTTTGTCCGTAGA" , result: -0.275

// PBM binding z-score lookup, sequence = "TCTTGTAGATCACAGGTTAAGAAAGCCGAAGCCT" , result: -0.161

// PBM binding z-score lookup, sequence = "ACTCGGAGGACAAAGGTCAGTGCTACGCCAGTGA" , result: 1.45

// PBM binding z-score lookup, sequence = "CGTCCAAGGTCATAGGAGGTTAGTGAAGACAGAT" , result: 2.12

// PBM binding z-score lookup, sequence = "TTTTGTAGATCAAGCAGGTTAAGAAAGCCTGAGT" , result: 0.00472

// PBM binding z-score lookup, sequence = "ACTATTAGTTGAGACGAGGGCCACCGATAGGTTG" , result: -0.224

// PBM binding z-score lookup, sequence = "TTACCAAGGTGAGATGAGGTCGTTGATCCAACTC" , result: -0.0824

// PBM binding z-score lookup, sequence = "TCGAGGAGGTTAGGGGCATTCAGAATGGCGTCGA" , result: -0.0426

// PBM binding z-score lookup, sequence = "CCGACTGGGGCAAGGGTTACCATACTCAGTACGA" , result: -0.283

// PBM binding z-score lookup, sequence = "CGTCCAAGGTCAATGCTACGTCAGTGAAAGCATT" , result: 0.394

// PBM binding z-score lookup, sequence = "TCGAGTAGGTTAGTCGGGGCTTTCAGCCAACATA" , result: -0.783

// PBM binding z-score lookup, sequence = "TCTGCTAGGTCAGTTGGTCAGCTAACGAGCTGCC" , result: -0.44

###

tested on: PPARg:RXRa (NR concentration 180 nM, RXRa partner concentration 90 nM); test: PBM binding z-score (relative to random genomic background probes); higher = stronger binding; sequences stand for … in GC…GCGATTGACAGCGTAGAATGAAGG
Threshold check on PBM binding z-score: at or above 0.7 gives true (1), strictly below gives false (0).

Challenge: Is reported PBM binding z-score greater than or equal to 0.7 here: "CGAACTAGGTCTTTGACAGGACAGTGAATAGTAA"
Response given: false (0)

Challenge: Is reported PBM binding z-score greater than or equal to 0.7 here: "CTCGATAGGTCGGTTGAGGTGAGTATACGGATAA"
Response given: false (0)

Challenge: Is reported PBM binding z-score greater than or equal to 0.7 here: "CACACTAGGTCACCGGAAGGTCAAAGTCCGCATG"
Response given: true (1)

Challenge: Is reported PBM binding z-score greater than or equal to 0.7 here: "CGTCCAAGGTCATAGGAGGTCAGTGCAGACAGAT"
Response given: true (1)

Challenge: Is reported PBM binding z-score greater than or equal to 0.7 here: "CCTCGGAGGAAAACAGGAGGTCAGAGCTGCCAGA"
Response given: false (0)

Challenge: Is reported PBM binding z-score greater than or equal to 0.7 here: "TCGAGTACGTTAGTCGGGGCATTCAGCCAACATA"
Response given: false (0)

Challenge: Is reported PBM binding z-score greater than or equal to 0.7 here: "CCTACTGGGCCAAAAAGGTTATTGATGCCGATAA"
Response given: true (1)

Challenge: Is reported PBM binding z-score greater than or equal to 0.7 here: "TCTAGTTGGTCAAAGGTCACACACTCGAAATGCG"
Response given: true (1)

Challenge: Is reported PBM binding z-score greater than or equal to 0.7 here: "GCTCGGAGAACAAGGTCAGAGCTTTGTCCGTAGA"
Response given: false (0)

Challenge: Is reported PBM binding z-score greater than or equal to 0.7 here: "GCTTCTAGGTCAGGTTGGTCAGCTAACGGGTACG"
Response given: true (1)

Challenge: Is reported PBM binding z-score greater than or equal to 0.7 here: "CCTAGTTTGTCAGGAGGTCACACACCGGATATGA"
Response given: true (1)

###

I'd be grateful if you could share measured PBM binding z-score for these entries.
tested on: PPARg homodimer (NR concentration 180 nM); test: PBM binding z-score (relative to random genomic background probes); higher = stronger binding; sequences stand for … in GC…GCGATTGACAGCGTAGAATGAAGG

// PBM binding z-score lookup, sequence = "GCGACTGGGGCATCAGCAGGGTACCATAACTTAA" , result: -0.494

// PBM binding z-score lookup, sequence = "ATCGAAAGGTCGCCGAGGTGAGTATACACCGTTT" , result: 1.79

// PBM binding z-score lookup, sequence = "CCTAGTTGGACAAGGTCACACACGCTATAGGTAC" , result: 3.15

// PBM binding z-score lookup, sequence = "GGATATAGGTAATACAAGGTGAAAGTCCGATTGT" , result: 1.17

// PBM binding z-score lookup, sequence = "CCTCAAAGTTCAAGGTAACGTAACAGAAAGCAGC" , result: 3.58

// PBM binding z-score lookup, sequence = "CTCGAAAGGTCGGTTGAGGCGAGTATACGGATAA" , result: 0.331

// PBM binding z-score lookup, sequence = "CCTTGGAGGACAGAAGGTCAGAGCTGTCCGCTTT" , result: 1.98

// PBM binding z-score lookup, sequence = "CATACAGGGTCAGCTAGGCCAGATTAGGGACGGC" , result: 1.45

// PBM binding z-score lookup, sequence = "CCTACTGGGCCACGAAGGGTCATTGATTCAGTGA" , result: 1.51

// PBM binding z-score lookup, sequence = "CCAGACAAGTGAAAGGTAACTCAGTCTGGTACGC" , result: 0.888

// PBM binding z-score lookup, sequence = "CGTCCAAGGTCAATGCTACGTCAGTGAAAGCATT" , result: 2.71

// PBM binding z-score lookup, sequence = "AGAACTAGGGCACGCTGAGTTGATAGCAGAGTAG" , result: 0.0464

// PBM binding z-score lookup, sequence = "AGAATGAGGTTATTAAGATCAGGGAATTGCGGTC" , result: 1.11

// PBM binding z-score lookup, sequence = "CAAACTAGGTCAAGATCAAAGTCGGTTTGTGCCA" , result: 2.34

// PBM binding z-score lookup, sequence = "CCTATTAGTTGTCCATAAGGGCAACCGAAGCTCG" , result: 1.69

// PBM binding z-score lookup, sequence = "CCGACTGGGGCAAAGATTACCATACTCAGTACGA" , result: 0.462

// PBM binding z-score lookup, sequence = "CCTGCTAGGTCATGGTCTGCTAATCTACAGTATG" , result: 0.597

// PBM binding z-score lookup, sequence = "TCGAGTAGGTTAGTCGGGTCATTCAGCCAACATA" , result: 1.13

// PBM binding z-score lookup, sequence = "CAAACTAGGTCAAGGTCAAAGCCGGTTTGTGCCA" , result: 2.93

// PBM binding z-score lookup, sequence = "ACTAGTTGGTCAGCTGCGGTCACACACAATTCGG" , result: 0.275

// PBM binding z-score lookup, sequence = "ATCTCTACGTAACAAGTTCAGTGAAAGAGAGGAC" , result: 0.708

// PBM binding z-score lookup, sequence = "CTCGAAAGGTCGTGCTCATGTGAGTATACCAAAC" , result: 1.16

// PBM binding z-score lookup, sequence = "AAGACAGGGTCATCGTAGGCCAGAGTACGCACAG" , result: 1.25

// PBM binding z-score lookup, sequence = "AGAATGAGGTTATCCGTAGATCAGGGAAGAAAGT" , result: 0.547

// PBM binding z-score lookup, sequence = "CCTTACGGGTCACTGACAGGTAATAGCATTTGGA" , result: 4.26

// PBM binding z-score lookup, sequence = "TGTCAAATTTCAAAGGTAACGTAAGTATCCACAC" , result: 0.532

###

I'd be grateful if you could share measured PBM binding z-score for these entries.
test system: PPARg:RXRa IVT, anti-PPARg (NR concentration 270 nM, RXRa partner concentration 90 nM); assay: PBM binding z-score (relative to random genomic background probes); higher = stronger binding; sequences stand for … in GC…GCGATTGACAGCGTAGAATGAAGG
Reply: number alone, nothing else.

Reading of PBM binding z-score for "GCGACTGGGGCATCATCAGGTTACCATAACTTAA" with PPARg:RXRa IVT, anti-PPARg (NR concentration 270 nM, RXRa partner concentration 90 nM): 3.3

Reading of PBM binding z-score for "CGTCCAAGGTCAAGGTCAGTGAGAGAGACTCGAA" with PPARg:RXRa IVT, anti-PPARg (NR concentration 270 nM, RXRa partner concentration 90 nM): 4.84

Reading of PBM binding z-score for "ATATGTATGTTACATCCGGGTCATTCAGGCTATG" with PPARg:RXRa IVT, anti-PPARg (NR concentration 270 nM, RXRa partner concentration 90 nM): 3.46

Reading of PBM binding z-score for "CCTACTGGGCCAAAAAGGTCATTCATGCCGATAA" with PPARg:RXRa IVT, anti-PPARg (NR concentration 270 nM, RXRa partner concentration 90 nM): 3.97

Reading of PBM binding z-score for "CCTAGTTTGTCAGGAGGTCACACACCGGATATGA" with PPARg:RXRa IVT, anti-PPARg (NR concentration 270 nM, RXRa partner concentration 90 nM): 2.9

Reading of PBM binding z-score for "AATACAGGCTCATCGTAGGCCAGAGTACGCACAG" with PPARg:RXRa IVT, anti-PPARg (NR concentration 270 nM, RXRa partner concentration 90 nM): -0.0891

Reading of PBM binding z-score for "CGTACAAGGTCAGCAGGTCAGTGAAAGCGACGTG" with PPARg:RXRa IVT, anti-PPARg (NR concentration 270 nM, RXRa partner concentration 90 nM): 4.79

Reading of PBM binding z-score for "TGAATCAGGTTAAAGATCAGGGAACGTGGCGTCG" with PPARg:RXRa IVT, anti-PPARg (NR concentration 270 nM, RXRa partner concentration 90 nM): 3.33

Reading of PBM binding z-score for "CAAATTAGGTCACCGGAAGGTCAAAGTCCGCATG" with PPARg:RXRa IVT, anti-PPARg (NR concentration 270 nM, RXRa partner concentration 90 nM): 8.72

Reading of PBM binding z-score for "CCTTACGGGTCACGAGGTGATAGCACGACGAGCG" with PPARg:RXRa IVT, anti-PPARg (NR concentration 270 nM, RXRa partner concentration 90 nM): 5.24

Reading of PBM binding z-score for "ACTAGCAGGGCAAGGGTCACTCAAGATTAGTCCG" with PPARg:RXRa IVT, anti-PPARg (NR concentration 270 nM, RXRa partner concentration 90 nM): 4.69

Reading of PBM binding z-score for "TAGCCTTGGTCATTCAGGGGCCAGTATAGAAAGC" with PPARg:RXRa IVT, anti-PPARg (NR concentration 270 nM, RXRa partner concentration 90 nM): 0.278

Reading of PBM binding z-score for "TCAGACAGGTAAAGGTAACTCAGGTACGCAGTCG" with PPARg:RXRa IVT, anti-PPARg (NR concentration 270 nM, RXRa partner concentration 90 nM): 0.745

Reading of PBM binding z-score for "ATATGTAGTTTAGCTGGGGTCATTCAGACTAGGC" with PPARg:RXRa IVT, anti-PPARg (NR concentration 270 nM, RXRa partner concentration 90 nM): 1.41

Reading of PBM binding z-score for "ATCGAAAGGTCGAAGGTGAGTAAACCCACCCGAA" with PPARg:RXRa IVT, anti-PPARg (NR concentration 270 nM, RXRa partner concentration 90 nM): 2.17

Reading of PBM binding z-score for "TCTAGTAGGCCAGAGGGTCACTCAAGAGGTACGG" with PPARg:RXRa IVT, anti-PPARg (NR concentration 270 nM, RXRa partner concentration 90 nM): 4

Reading of PBM binding z-score for "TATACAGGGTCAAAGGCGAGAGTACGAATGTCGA" with PPARg:RXRa IVT, anti-PPARg (NR concentration 270 nM, RXRa partner concentration 90 nM): 4.69

Reading of PBM binding z-score for "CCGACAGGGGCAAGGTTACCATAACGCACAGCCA" with PPARg:RXRa IVT, anti-PPARg (NR concentration 270 nM, RXRa partner concentration 90 nM): 0.0813

Reading of PBM binding z-score for "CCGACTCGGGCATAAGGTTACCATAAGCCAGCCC" with PPARg:RXRa IVT, anti-PPARg (NR concentration 270 nM, RXRa partner concentration 90 nM): -0.167

Reading of PBM binding z-score for "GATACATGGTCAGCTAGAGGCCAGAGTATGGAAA" with PPARg:RXRa IVT, anti-PPARg (NR concentration 270 nM, RXRa partner concentration 90 nM): 0.0448

Reading of PBM binding z-score for "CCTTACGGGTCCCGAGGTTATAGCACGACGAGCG" with PPARg:RXRa IVT, anti-PPARg (NR concentration 270 nM, RXRa partner concentration 90 nM): -0.545

Reading of PBM binding z-score for "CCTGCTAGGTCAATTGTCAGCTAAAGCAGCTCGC" with PPARg:RXRa IVT, anti-PPARg (NR concentration 270 nM, RXRa partner concentration 90 nM): 3.14

Reading of PBM binding z-score for "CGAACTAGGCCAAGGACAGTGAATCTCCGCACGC" with PPARg:RXRa IVT, anti-PPARg (NR concentration 270 nM, RXRa partner concentration 90 nM): 4.83

Reading of PBM binding z-score for "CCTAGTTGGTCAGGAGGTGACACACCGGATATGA" with PPARg:RXRa IVT, anti-PPARg (NR concentration 270 nM, RXRa partner concentration 90 nM): 2.36

Reading of PBM binding z-score for "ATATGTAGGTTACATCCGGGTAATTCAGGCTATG" with PPARg:RXRa IVT, anti-PPARg (NR concentration 270 nM, RXRa partner concentration 90 nM): 7.21

Reading of PBM binding z-score for "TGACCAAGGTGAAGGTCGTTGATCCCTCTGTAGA" with PPARg:RXRa IVT, anti-PPARg (NR concentration 270 nM, RXRa partner concentration 90 nM): 2.71

Attribution: the supplement of paper PMC6555819
